Every entry's value here was drawn from patent US20130266636A1.

Tested on: human breast (MDA-MB-231) carcinoma cell line
Test: Cell viability assay in MDA-MB-231 cells
Format: cell-based
Conditions: MDA-MB-231
reported.metric: potency relative to KG5 (cell viability EC50s)

Before answering, review these 6 worked examples.
{"compound": "CSc1nc(N)cc(Oc2ccc(-c3nnc(Nc4cc(C)cc(C)c4)[nH]3)cc2)n1 [H3-7]", "experimental.result": "more potent than KG5"}
{"compound": "CSc1nc(N)cc(Oc2ccc(-c3nnc(Nc4ccc(C)c(C)c4)[nH]3)cc2)n1 [H3-9]", "experimental.result": "more potent than KG5"}
{"compound": "CSc1nc(N)cc(Oc2ccc(-c3nnc(Nc4cc(C)ccc4C)[nH]3)cc2)n1 [H3-3]", "experimental.result": "more potent than KG5"}
{"compound": "CSc1nc(N)cc(Oc2ccc(-c3cnc(Nc4cccc(C(F)(F)F)c4)[nH]3)cc2)n1 [K38-B]", "experimental.result": "more potent than KG5"}
{"compound": "CCOc1nc(N)cc(Oc2ccc(-c3nnc(Nc4cccc(C(F)(F)F)c4)[nH]3)cc2)n1 [K1-72]", "experimental.result": "more potent than KG5"}
{"compound": "CSc1nc(N)cc(Oc2ccc(-c3nnc(Nc4cccc(C)c4C)[nH]3)cc2)n1 [H3-11]", "experimental.result": "more potent than KG5"}

API: the following record is the query input.
Ask | Using known records, supply potency relative to KG5 (cell viability EC50s) for CSc1nc(N)cc(Oc2ccc(-c3nnc(Nc4cccc5c4CCCC5)[nH]3)cc2)n1 [H3-21]
Reply | more potent than KG5
